kd mutant/kd wt by entry:
Molecular target: T1, human TGFβ2 (human, UniProt P61812 303-414)
T1 construct: also called TGFβ2 homodimer
T1 sequence: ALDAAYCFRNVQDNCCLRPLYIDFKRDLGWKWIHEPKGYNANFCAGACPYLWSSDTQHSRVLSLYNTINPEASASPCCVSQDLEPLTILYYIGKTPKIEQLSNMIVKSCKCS
Assay: Biacore off-rate vs wt GC1008
Hey, just send me the number, nothing else.

The following binders have reported results that may help.
I52L (antibody, V domains shown, GC1008 IgG4 variant) VH: QVQLVQSGAEVKKPGSSVKVSCKASGYTFSSNVISWVRQAPGQGLEWMGGVLPIVDIANYAQRFKGRVTITADESTSTTYMELSSLRSEDTAVYYCASTLGLVLDAMDYWGQGTLVTVSS VL: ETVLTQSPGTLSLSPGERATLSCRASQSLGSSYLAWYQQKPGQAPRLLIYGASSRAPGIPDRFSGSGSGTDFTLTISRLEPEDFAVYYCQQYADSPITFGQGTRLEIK = 1.4
I54T (antibody, V domains shown, GC1008 IgG4 variant) VH: QVQLVQSGAEVKKPGSSVKVSCKASGYTFSSNVISWVRQAPGQGLEWMGGVIPTVDIANYAQRFKGRVTITADESTSTTYMELSSLRSEDTAVYYCASTLGLVLDAMDYWGQGTLVTVSS VL: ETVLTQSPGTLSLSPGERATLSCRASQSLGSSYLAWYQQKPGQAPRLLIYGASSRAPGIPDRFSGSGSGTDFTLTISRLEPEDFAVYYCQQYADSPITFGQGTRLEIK = 1.3
Y27H (antibody, V domains shown, GC1008 IgG4 variant) VH: QVQLVQSGAEVKKPGSSVKVSCKASGHTFSSNVISWVRQAPGQGLEWMGGVIPIVDIANYAQRFKGRVTITADESTSTTYMELSSLRSEDTAVYYCASTLGLVLDAMDYWGQGTLVTVSS VL: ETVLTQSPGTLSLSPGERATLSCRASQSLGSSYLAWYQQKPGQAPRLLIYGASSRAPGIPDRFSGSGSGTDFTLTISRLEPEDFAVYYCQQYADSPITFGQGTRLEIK = 1.4

// switching to the query binder
Specify reported kd mutant/kd wt for the binder shown: I54W (antibody, V domains shown, GC1008 IgG4 variant) VH: QVQLVQSGAEVKKPGSSVKVSCKASGYTFSSNVISWVRQAPGQGLEWMGGVIPWVDIANYAQRFKGRVTITADESTSTTYMELSSLRSEDTAVYYCASTLGLVLDAMDYWGQGTLVTVSS VL: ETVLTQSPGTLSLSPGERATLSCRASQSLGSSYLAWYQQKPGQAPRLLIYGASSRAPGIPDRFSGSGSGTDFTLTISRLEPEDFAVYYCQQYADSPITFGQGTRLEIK 1.2

Values were extracted from patent US20170342144A1.
